Numbers sourced from paper PMC9181926.

# Tested on: Hs578T cells
# experiment: Antiproliferation assay (cell counting, 48 h) in Hs578T breast cancer cells
# Assay type: cell-based, human
# condition-set: Homo sapiens, Hs-578T; Hs578T cells, 48 h incubation, cell counting
value-type: IC50

Below: 2 compounds and their reported IC50.
COC(=O)[C@]1(C)CCC[C@]2(C)c3cc(O)c(C(=O)/C=C/c4ccnc5ccccc45)cc3CCC12 (stereo partly shown) [Compound 40]	> 75 µM
COC(=O)[C@]1(C)CCC[C@]2(C)c3cc(O)c(/C=C/C(=O)c4ccccn4)cc3CCC12 (stereo partly shown) [Compound 49]	17.1 µM

Field: IC50. Fill in for each record below.
1. COC(=O)[C@]1(C)CCC[C@]2(C)c3cc(O)c(/C=C/C(=O)c4ccc(Br)s4)cc3CCC12 (stereo partly shown) [Compound 53]
2. COC(=O)[C@]1(C)CCC[C@]2(C)c3cc(O)c(C(=O)/C=C/c4cccnc4)cc3CCC12 (stereo partly shown) [Compound 33]
3. COC(=O)[C@]1(C)CCC[C@]2(C)c3cc(OC)c(C(=O)/C=C/c4cccnc4)cc3CCC12 (stereo partly shown) [Compound 32]
4. COC(=O)[C@]1(C)CCC[C@]2(C)c3cc(O)c(C(C)=O)cc3CCC12 (stereo partly shown) [Compound 28]
5. COC(=O)[C@]1(C)CCC[C@]2(C)c3cc(O)c(C(=O)/C=C/c4cnc5ccccc5c4)cc3CCC12 (stereo partly shown) [Compound 39]

### Response
1. 28.4 µM
2. 2.48 µM
3. > 75 µM
4. 136 µM
5. 15.7 µM

---

# System: MCF-7 cells
# experiment: Antiproliferation assay (cell counting, 48 h) in MCF-7 breast cancer cells
# Assay type: cell-based, human
# condition-set: Homo sapiens, MCF7; MCF-7 cells, 48 h incubation, cell counting
value-type: IC50 (µM)
One number for each entry, in µM.

Below: 2 compounds and their reported IC50.
COC(=O)[C@]1(C)CCC[C@]2(C)c3cc(O)c(C(=O)/C=C/c4ccncc4)cc3CCC12 (stereo partly shown) [Compound 35]	9.9
COC(=O)[C@]1(C)CCC[C@]2(C)c3cc(O)c(C(=O)/C=C/c4csc5ccccc45)cc3CCC12 (stereo partly shown) [Compound 47]	12.5

### Prompt If you can, please state the reported IC50 value of O=c1[nH]cc(F)c(=O)[nH]1 [Compound 5-FU, 5-fluorouracil, reference compound] .
### Response 5.37
